- targetSystem: His-BIR2-3 (125-356, C202A/C213G, XIAP) (Homo sapiens, UniProt P98170, C202A/C213G)
- Construct: additions of His-BIR2-3 (125-356, C202A/C213G, XIAP), fluorescein labeled dimeric SMAC peptide
- Sequence (P98170 125-356 C202A/C213G): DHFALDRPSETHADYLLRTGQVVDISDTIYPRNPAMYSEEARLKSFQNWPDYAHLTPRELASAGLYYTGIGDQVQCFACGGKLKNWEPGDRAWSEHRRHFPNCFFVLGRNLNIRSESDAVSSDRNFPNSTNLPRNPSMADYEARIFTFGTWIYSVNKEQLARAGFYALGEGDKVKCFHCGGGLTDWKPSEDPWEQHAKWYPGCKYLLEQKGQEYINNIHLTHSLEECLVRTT
- runDescription: XIAP-BIR2-3 Dimeric SMAC Peptide Homogeneous Time Resolved Fluorescence (HTRF) Assay
- conditionsUsed: fluorescein labeled dimeric SMAC peptide
quantityMeasured: IC50 (nM)
Numbers only, in nM.

{"columns": ["compound", "quantityMeasured", "numericResult"],
 "data": [
  ["CN[C@@H](C)C(=O)N[C@H](C(=O)N1C[C@@H]2C[C@H]1C(=O)N[C@@H](Cc1ccc3ccccc3c1)C(=O)N[C@H](C(=O)NS(=O)(=O)C1CC1)Cc1ccc(cc1)OCc1cn(nn1)[C@H]1C[C@@H](C(=O)N[C@@H](Cc3ccc4ccccc4c3)C(=O)N[C@H](C(=O)O)Cc3ccc(cc3)OC/C=C/CO2)N(C(=O)[C@@H](NC(=O)[C@H](C)NC)C(C)(C)C)C1)C1CCOCC1 [Example 109]", "IC50", 4.4]
]}

Parameters: items (list). Returns: IC50 for each item.
1. CN[C@@H](C)C(=O)N[C@H](C(=O)N1C[C@@H]2C[C@H]1C(=O)N[C@@H](Cc1ccc3ccccc3c1)C(=O)N[C@H](C(=O)O)Cc1ccc(cc1)C(=O)N[C@H]1C[C@@H](C(=O)N[C@@H](Cc3ccc4ccccc4c3)C(=O)N[C@H](C(=O)O)Cc3ccc(cc3)OC/C=C/CO2)N(C(=O)[C@@H](NC(=O)[C@H](C)NC)C(C)(C)C)C1)C1CCOCC1 [Example 66]
2. CN[C@@H](C)C(=O)N[C@H](C(=O)N1C[C@@H]2C[C@H]1C(=O)N[C@@H](Cc1ccc3ccccc3c1)C(=O)N[C@H](C(=O)O)Cc1ccc(cc1)OC/C=C/CO[C@H]1C[C@@H](C(=O)N[C@@H](Cc3ccc4ccccc4c3)C(=O)N[C@H](C(=O)NS(=O)(=O)c3ccccn3)Cc3ccc(cc3)OCc3cn2nn3)N(C(=O)[C@@H](NC(=O)[C@H](C)NC)C(C)(C)C)C1)C(C)(C)C [Example 118]
3. CN[C@@H](C)C(=O)N[C@H](C(=O)N1CC[C@H]2OCc3cn(nn3)CC[C@@H](C(=O)OC)NC(=O)[C@H](Cc3ccc4ccccc4c3)NC(=O)[C@@H]3[C@@H](CCN3C(=O)[C@@H](NC(=O)[C@H](C)NC)C(C)(C)C)OC/C=C/CC[C@@H](C(=O)O)NC(=O)[C@H](Cc3ccc4ccccc4c3)NC(=O)[C@H]21)C(C)(C)C [Example 16]
4. CN[C@@H](C)C(=O)N[C@@H](CC1CCCCC1)C(=O)N1C[C@@H]2C[C@H]1C(=O)N[C@@H](Cc1ccc3ccccc3c1)C(=O)N[C@H](C(=O)O)Cc1ccc(cc1)C(=O)N[C@H]1C[C@@H](C(=O)N[C@@H](Cc3ccc4ccccc4c3)C(=O)N[C@H](C(=O)O)Cc3ccc(cc3)OC/C=C/CO2)N(C(=O)[C@@H](NC(=O)[C@H](C)NC)C(C)(C)C)C1 [Example 69]
5. CN[C@@H](C)C(=O)N[C@@H](C)C(=O)N1C[C@@H]2C[C@H]1C(=O)N[C@@H](Cc1ccc3ccccc3c1)C(=O)N[C@H](C(=O)O)CCC(=O)N[C@H]1C[C@@H](C(=O)N[C@@H](Cc3ccc4ccccc4c3)C(=O)N[C@H](C(=O)O)Cc3ccc(cc3)OC/C=C/CO2)N(C(=O)[C@@H](NC(=O)[C@H](C)NC)C(C)(C)C)C1 [Example 55]
6. CN[C@@H](C)C(=O)N[C@H](C(=O)N[C@H]1C/C=C/CC[C@@H](C(=O)O)NC(=O)[C@H](Cc2ccc3ccccc3c2)NC(=O)[C@@H]2CN(CCN2C(=O)[C@@H](NC(=O)[C@H](C)NC)C(C)(C)C)C(=O)CNC(=O)CC[C@@H](C(=O)O)NC(=O)[C@H](Cc2ccc3ccccc3c2)NC1=O)C(C)(C)C [Example 77]
7. CN[C@@H](C)C(=O)N[C@H](C(=O)N1C[C@@H]2C[C@H]1C(=O)N[C@@H](Cc1ccc3ccccc3c1)C(=O)N[C@H](C(=O)O)Cc1ccc(cc1)OCCCC[C@H]1C[C@@H](C(=O)N[C@@H](Cc3ccc4ccccc4c3)C(=O)N[C@H](C(=O)NS(C)(=O)=O)Cc3ccc(cc3)OCc3cn2nn3)N(C(=O)[C@@H](NC(=O)[C@H](C)NC)C(C)(C)C)C1)C(C)(C)C [Example 2]

a:
1. 1.3
2. 1.8
3. 3.5
4. 3.2
5. 108
6. 12.1
7. 0.8

Look up IC50 for the entries below, preserving their order.
1. CN[C@@H](C)C(=O)N[C@H](C(=O)N1C[C@@H]2C[C@H]1C(=O)N[C@@H](Cc1ccc3ccccc3c1)C(=O)N[C@H](C(=O)O)Cc1ccc(cc1)OCCCCO[C@H]1C[C@@H](C(=O)N[C@@H](Cc3ccc4ccccc4c3)C(=O)N[C@H](C(=O)NS(=O)(=O)c3ccccn3)Cc3ccc(cc3)OCc3cn2nn3)N(C(=O)[C@@H](NC(=O)[C@H](C)NC)C(C)(C)C)C1)C(C)(C)C [Example 125]
2. CN[C@@H](C)C(=O)N[C@H](C(=O)N[C@H]1C/C=C\CC[C@@H](C(=O)O)NC(=O)[C@H](Cc2ccc3ccccc3c2)NC(=O)[C@@H]2CN(CCN2C(=O)[C@@H](NC(=O)[C@H](C)NC)C(C)(C)C)C(=O)CNC(=O)CC[C@@H](C(=O)O)NC(=O)[C@H](Cc2ccc3ccccc3c2)NC1=O)C(C)(C)C [Example 76]
3. CN[C@@H](C)C(=O)N[C@H](C(=O)N1C[C@H]2CCCCOc3ccc(cc3)C[C@@H](c3nnn[nH]3)NC(=O)[C@H](Cc3ccc4ccccc4c3)NC(=O)[C@@H]3C[C@@H](CN3C(=O)[C@@H](NC(=O)[C@H](C)NC)C(C)(C)C)n3cc(nn3)COc3ccc(cc3)C[C@@H](C(=O)O)NC(=O)[C@H](Cc3ccc4ccccc4c3)NC(=O)[C@@H]1C2)C(C)(C)C [Example 90]

a:
1. 2.7
2. 14.6
3. 0.5
